Each recorded value in this set is attributed to PubChem BioAssay AID1159580.

assay: chemical genetic growth profiling, strain panel (AID 1159580);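 note: tested at 20 µM; growth read once vehicle control cultures reached saturation at 30 °C; 1 = growth at the plate median or of vehicle wells; lower values mean less growth of the strain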; details: S. cerevisiae deletion strains, growth OD, locus YAL030W, strain snc1
About 2,000 (36%) of roughly 5,500 compounds were called active. Roughly 18% stayed inconclusive and do not appear here. Cut-off read from the data, not from the text of the source: active = normalized growth mostly below about 0.91 (no sharp cut-off); inconclusive = no clear call, values can overlap the other calls; inactive = mostly above about 0.92. Some of the results follow.
Possible outcomes: 1 (yes) = active, 0 (no) = inactive

>>> class_label("CC(=O)OC(C)C[N+](C)(C)C (centres undefined)")
"0 (no)"
>>> class_label("C[C@@H]1CC[C@@]2(OC1)O[C@H]1CC3C4CC[C@H]5C[C@@H](O)CC[C@]5(C)C4CC[C@]3(C)[C@H]1[C@@H]2C (some centres undefined)")
"0 (no)"
>>> class_label("NC(=NCCC[C@H](N)C(=O)O)N[N+](=O)[O-]")
"0 (no)"
>>> class_label("C[N+](C)(C)CC(O)CC(=O)O (centres undefined)")
"0 (no)"
>>> class_label("CC1CC[C@@]2(OC1)O[C@H]1CC3C4CC[C@@H]5C[C@@H](O)CC[C@]5(C)C4CC[C@]3(C)[C@H]1[C@@H]2C (some centres undefined)")
"0 (no)"
>>> class_label("C=C1CCC2(OC1)OC1CC3C4CC=C5CC(O)CC(O)C5(C)C4CCC3(C)C1C2C (centres undefined)")
"0 (no)"
>>> class_label("CC1CC[C@]2(NC1)O[C@H]1CC3C4CC[C@H]5C[C@@H](O)CC[C@]5(C)C4CC[C@]3(C)[C@H]1[C@@H]2C (some centres undefined)")
"1 (yes)"
>>> class_label("CC(C)c1c(O)c(-c2cc3c(c(C(C)C)c2O)CCC2C(C)(C)CCC[C@]32C)cc2c1CCC1C(C)(C)CCC[C@]21C (some centres undefined)")
"0 (no)"
>>> class_label("CC(=O)O[C@]1(C(C)=O)CCC2C3C=C(Cl)C4=CC(=O)[C@@H]5C[C@@H]5[C@]4(C)C3CC[C@@]21C (some centres undefined)")
"0 (no)"

====

test: chemical genetic growth profiling, strain panel (AID 1159580); conditions: S. cerevisiae deletion strains, growth OD, locus YJL115W, strain asf1, stronger effect = lower value
Screen size: about 5,500 compounds; about 2,000 (36%) were called active. Inconclusive results (about 18%) are left out. The list shows a part of the results.
experimental-endpoint: normalized growth

>>> endpoint_result("CC1O[C@@H](Oc2c(-c3ccc(O)c(O)c3)oc3cc(O)cc(O)c3c2=O)[C@H](O)[C@H](O)[C@H]1O (stereo partly drawn)")
0.991
>>> endpoint_result("COc1ccc(-c2cc(=O)c3c(O)cc(O[C@@H]4O[C@H](CO[C@H]5O[C@H](C)[C@@H](O)[C@H](O)[C@@H]5O)[C@@H](O)[C@H](O)[C@H]4O)cc3o2)cc1O")
1.03
>>> endpoint_result("O=c1c(O)c(-c2ccc(O)c(O)c2)oc2c(O[C@@H]3O[C@H](CO)[C@H](O)[C@@H](O)[C@H]3O)c(O)cc(O)c12")
1

====

test: chemical genetic growth profiling, strain panel (AID 1159580); details: S. cerevisiae deletion strains, growth OD, locus YCL029C, strain bik1, stronger effect = lower value
The campaign covered roughly 5,500 compounds. About 2,000 (36%) were called active. About 18% were inconclusive and are not listed. The list shows a part of the results.
Reported normalized growth values for a set of molecules
experimental-endpoint: normalized growth

>>> endpoint_result("COc1cc(OC)c2c(=O)c(O)c(-c3ccc(OC)c(OC)c3)oc2c1")
"0.768 (active)"
>>> endpoint_result("CC(=O)[C@@]1(O)CCC2C3C[C@H](C)C4=CC(=O)C=CC4(C)[C@@]3(F)[C@@H](O)C[C@@]21C (some centres undefined)")
"0.997 (inactive)"
>>> endpoint_result("COc1ccc2c(c1)CCC1C2CC[C@@]2(C)C1CC[C@@H]2O (some centres undefined)")
"0.884 (active)"
>>> endpoint_result("CN(C)c1nc(N)c(C(=O)N=C(N)N)nc1Cl")
"1.01 (inactive)"
>>> endpoint_result("COc1ccc(-c2oc3c(CC=C(C)C)c(O[C@@H]4O[C@H](CO)[C@@H](O)[C@H](O)[C@H]4O)cc(O)c3c(=O)c2O[C@@H]2O[C@@H](C)[C@H](O)[C@@H](O)[C@H]2O)cc1")
"0.976 (inactive)"
>>> endpoint_result("C[C@]12CCC3c4ccc(O)cc4CCC3C1C[C@@H](O)[C@@H]2O (some centres undefined)")
"0.984 (inactive)"
>>> endpoint_result("NC(CSCSCC(N)C(=O)O)C(=O)O (centres undefined)")
"0.989 (inactive)"
>>> endpoint_result("C[C@@H]1O[C@@H](OC[C@H]2OC(Oc3c(-c4ccc(OCCO)c(OCCO)c4)oc4cc(OCCO)cc(O)c4c3=O)[C@H](O)[C@@H](O)[C@@H]2O)[C@H](O)[C@H](O)[C@H]1O (some centres undefined)")
"1.01 (inactive)"
>>> endpoint_result("NC(N)=NC(=O)c1nc(Cl)c(N2CCCCCC2)nc1N")
"1.01 (inactive)"

====

test: chemical genetic growth profiling, strain panel (AID 1159580);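 note: tested at 20 µM; growth read once vehicle control cultures reached saturation at 30 °C; 1 = growth at the plate median or of vehicle wells; lower values mean less growth of the strain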; conditions: S. cerevisiae deletion strains, growth OD, locus YEL037C, strain rad23, stronger effect = lower value
The campaign covered roughly 5,500 compounds. About 2,000 (36%) were called active. Roughly 18% stayed inconclusive and do not appear here. Some of the results follow.
Reported normalized growth values for a set of compounds
experimental-endpoint: normalized growth

>>> endpoint_result("CC1(C)C(=O)C=C[C@@]2(C)C1C[C@@H](O)[C@]1(C)C2CC[C@@]2(C)[C@H](c3ccoc3)OC(=O)[C@H]3O[C@]321 (stereo partly specified)")
0.995
>>> endpoint_result("O=c1c(O)c(-c2ccc(O)c(O)c2)oc2c(O)c(O)cc(O)c12")
0.987
>>> endpoint_result("CC1(C)C(=O)C=C[C@@]2(C)C1CC(=O)[C@]1(C)C2CC[C@@]2(C)[C@H](c3ccoc3)OC(=O)[C@H]3O[C@]321 (stereo partly specified)")
0.989
>>> endpoint_result("CC1(C)C2CC(=O)[C@]3(C)C(CC[C@@]4(C)[C@H](c5ccoc5)OC(=O)C5OC543)[C@@]2(C)[C@@H](O)C[C@H]1O (stereo partly specified)")
1
>>> endpoint_result("CCC(=O)c1c(O)cc(O)cc1O")
0.982
>>> endpoint_result("CC(=O)O[C@@H]1CC2C(C)(C)C(=O)C=C[C@]2(C)C2CC[C@@]3(C)[C@H](c4ccoc4)OC(=O)[C@H]4O[C@]43[C@@]21C (stereo partly specified)")
0.973
>>> endpoint_result("CCCCC1C(=O)N(c2ccccc2)N(c2ccc(O)cc2)C1=O (stereo unspecified)")
1
>>> endpoint_result("CC1(C)C=CC(=O)[C@@]2(C)C1CC(=O)[C@]1(C)C2CC[C@@]2(C)[C@H](c3ccoc3)OC(=O)C3OC321 (stereo partly specified)")
1
>>> endpoint_result("CC1(C)C(=O)C=C[C@@]2(C)C1C=C[C@]1(C)C2CC[C@@]2(C)[C@H](c3ccoc3)OC(=O)C3OC321 (stereo partly specified)")
0.992
>>> endpoint_result("COC(=O)c1c(C)cc(O)cc1O")
1.01
>>> endpoint_result("CCOC(=O)c1c(C)cc(OC)cc1O")
0.978

====

test: chemical genetic growth profiling, strain panel (AID 1159580);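 note: tested at 20 µM; growth read once vehicle control cultures reached saturation at 30 °C; 1 = growth at the plate median or of vehicle wells; lower values mean less growth of the strain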; conditions: S. cerevisiae deletion strains, growth OD, locus YLR403W, strain SFP1, stronger effect = lower value
About 2,000 (36%) of roughly 5,500 compounds were called active. Roughly 18% stayed inconclusive and do not appear here. Some of the results follow.
Reported normalized growth values for a set of molecules
experimental-endpoint: normalized growth

>>> endpoint_result("O=C1Nc2ccccc2/C1=C/c1ccc(Oc2ccccc2)nc1")
0.826
>>> endpoint_result("Cc1ccc(C)n1-c1ccc(/C=C2/C(=O)Nc3ccccc32)cc1")
0.925
>>> endpoint_result("O/N=C(/c1ccc(Cl)cc1)c1cc2ccccc2o1")
0.614
>>> endpoint_result("OC1(C(F)(F)F)CC(c2ccc3ccccc3c2)=NN1 (stereo unspecified)")
0.0326
>>> endpoint_result("c1ccc(-c2nnc(-c3ccccn3)nc2-c2ccccc2)cc1")
0.631
>>> endpoint_result("Cc1nnc2n1N=C(c1ccc(CC(C)C)cc1)C(C)S2 (stereo unspecified)")
0.965

====

Reported normalized growth values for a set of compounds
assay: chemical genetic growth profiling, strain panel (AID 1159580);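 note: tested at 20 µM; growth read once vehicle control cultures reached saturation at 30 °C; 1 = growth at the plate median or of vehicle wells; lower values mean less growth of the strain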; settings: S. cerevisiae deletion strains, growth OD, locus YGL167C, strain pmr1, stronger effect = lower value
Hit rate of the full screen: of about 5,500 compounds, about 2,000 (36%) were called active. Roughly 18% stayed inconclusive and do not appear here. This is one part of the list.
experimental-endpoint: normalized growth

>>> endpoint_result("COc1c2ccoc2cc2oc(=O)ccc12")
0.981
>>> endpoint_result("CCN(Cc1ccncc1)C(=O)C(CO)c1ccccc1 (stereo not given)")
1.02
>>> endpoint_result("O=C(OC1Cc2c(O)cc(O)cc2OC1c1cc(=O)c(O)c2c(O)c(O)cc(C3Oc4cc(O)cc(O)c4CC3O)c2c1)c1cc(O)c(O)c(O)c1 (stereo not given)")
0.969
>>> endpoint_result("COc1cc2occc2c2oc(=O)ccc12")
1.02
>>> endpoint_result("OCC(O)C(O)C(O)C(O)C(O)CO (stereo not given)")
0.996
>>> endpoint_result("O=C(O[C@@H]1Cc2c(O)cc(O)cc2O[C@@H]1c1cc(O)c(=O)c2c(O)c(O)cc([C@H]3Oc4cc(O)cc(O)c4C[C@H]3O)c2c1)c1cc(O)c(O)c(O)c1")
0.422
>>> endpoint_result("CC(=O)O[C@]1(C(C)=O)CCC2C3C=C(Cl)C4=CC(=O)[C@@H]5C[C@@H]5[C@]4(C)C3CC[C@@]21C (stereo not given in full)")
1.03
>>> endpoint_result("CC(=O)OC(C)C[N+](C)(C)C (stereo not given)")
1.01
>>> endpoint_result("O=c1ccc2c(O)c3ccoc3cc2o1")
0.986
>>> endpoint_result("CCCCCCCCCCCC1=C(O)C(=O)C=C(O)C1=O")
0.882
